assay: solvent given as SMILES; details: in ClCCl
Measured parameter: absorption maximum (nm)

c1ccc(C2c3ccccc3-c3cc4c(cc32)-c2ccccc2C4c2ccccc2)cc1 (stereo not drawn)	328
CCN(CC)c1ccc([N+]2=Cc3ccc4c5c(ccc4c3O[B-]2(c2ccccc2)c2ccccc2)C=[N+](c2ccc(N(CC)CC)cc2)[B-](c2ccccc2)(c2ccccc2)O5)cc1	552
O=C1CCCC2=C1CC1=C(CCCC1=O)N2NC(=O)c1ccccc1	364
CCCCC(CC)Cn1c2cc(-c3ccc(N(c4ccccc4)c4ccccc4)cc3)c(C#N)cc2c2cc(C#N)c(-c3ccc(N(c4ccccc4)c4ccccc4)cc3)cc21 (stereo not drawn)	369
C1=CC2C=c3c(cc4cccc5cc6ccccc6c3c45)C3=c4ccccc4=CC(=C1)C32 (stereo not drawn)	592
C(=C\c1cnccn1)/c1ccc(N(c2ccccc2)c2ccc(/C=C/c3cnccn3)cc2)cc1	420
CN1C(=O)c2cccc3c(-n4c5ccccc5c5ccccc54)ccc(c23)C1=O	414
Cc1cc(-c2ccc(N(c3ccccc3)c3ccccc3)cc2)c2nsnc2c1-c1ccc(C(C)(C)C)cc1	418
